System: HCC1143
PROTOCOL NOTES: normalised response (% of control), CellTiter-Glo; higher = more viable cells (100 = DMSO, 0 = benzethonium chloride kill control)
PARTICULARS: incubation time: 72 h
Outcome label depends on normalised response relative to 80%: at/above gives yes (1), below gives no (0).

Recorded results for 9 compounds are shown here.
| COMPOUND | EXPERIMENTAL TARGET | CATEGORY LABEL |
| --- | --- | --- |
| Cn1c(Nc2ccc(C(F)(F)F)cc2)nc2cc(Oc3ccnc(-c4ncc(C(F)(F)F)[nH]4)c3)ccc21 [RAF265] (1000 nM) | HCC1143 | yes (1) |
| COc1cc([C@@H]2c3cc4c(cc3[C@@H](O[C@@H]3O[C@@H]5CO[C@@H](C)O[C@H]5[C@H](O)[C@H]3O)[C@H]3COC(=O)[C@H]23)OCO4)cc(OC)c1O [Etoposide] (10000 nM) | HCC1143 | no (0) |
| CO[C@H]1/C=C\C=C(/C)C(=O)NC2=CC(=O)C(NCCN(C)C)=C(C[C@@H](C)C[C@H](OC)[C@H](O)[C@@H](C)/C=C(\C)[C@@H]1OC(N)=O)C2=O [Alvespimycin] (1000 nM) | HCC1143 | no (0) |
| CCC1(c2ccc(N)cc2)CCC(=O)NC1=O (stereo unspecified) [Aminoglutethimide] (10000 nM) | HCC1143 | yes (1) |
| CN(C)/N=N/c1[nH]cnc1C(N)=O [Dacarbazine] (10000 nM) | HCC1143 | yes (1) |
| O=P1(NCCCl)OCCCN1CCCl (stereo unspecified) [Ifosfamide] (10000 nM) | HCC1143 | yes (1) |
| C=C(c1ccc(C(=O)O)cc1)c1cc2c(cc1C)C(C)(C)CCC2(C)C [Bexarotene] (10000 nM) | HCC1143 | yes (1) |
| CCC(C)(C)C(=O)O[C@H]1C[C@@H](C)C=C2C=C[C@H](C)[C@H](CC[C@@H]3C[C@@H](O)CC(=O)O3)[C@H]21 [Simvastatin] (10000 nM) | HCC1143 | yes (1) |
| C[C@]12CC[C@@H]3c4ccc(O)cc4C[C@@H](CCCCCCCCC[S+]([O-])CCCC(F)(F)C(F)(F)F)[C@H]3[C@@H]1CC[C@@H]2O (stereo partly specified) [Fulvestrant] (1000 nM) | HCC1143 | yes (1) |

Query: Confirm if normalised response reported for the compound NC(=O)Nc1cc(-c2cccc(F)c2)sc1C(=O)N[C@H]1CCCNC1 [AZD7762] (1000 nM) is 80% or above.
Response: no (0)

---

Tested on: MDA-MB-453
PROTOCOL NOTES: normalised viability (% of control), CellTiter-Blue; higher = more viable cells (about 100 = DMSO control)
PARTICULARS: incubation time: 72 h
normalised viability for assorted molecules
State the answer as a number, implicitly in %.

Query: Answer with the recorded normalised viability of O=P1(NCCCl)OCCCN1CCCl (stereo unspecified) [Ifosfamide] (300 nM) only.
Response: 110

Query: Answer with the recorded normalised viability of CN(N=O)C(=O)N[C@@H](C=O)[C@@H](O)[C@H](O)[C@H](O)CO [Streptozocin] (300 nM) only.
Response: 102

Query: Answer with the recorded normalised viability of Cc1ccc(-n2nc(C(C)(C)C)cc2NC(=O)Nc2ccc(OCCN3CCOCC3)c3ccccc23)cc1 [Doramapimod] (300 nM) only.
Response: 105

Query: Answer with the recorded normalised viability of COc1cc([C@@H]2c3cc4c(cc3[C@@H](O[C@@H]3O[C@@H]5CO[C@@H](C)O[C@H]5[C@H](O)[C@H]3O)[C@H]3COC(=O)[C@H]23)OCO4)cc(OC)c1O [Etoposide] (300 nM) only.
Response: 104

Query: Answer with the recorded normalised viability of CC(C)Cn1cnc2c(N)nc3ccccc3c21 [Imiquimod] (300 nM) only.
Response: 103

Query: Answer with the recorded normalised viability of Cn1c(CCCC(=O)O)nc2cc(N(CCCl)CCCl)ccc21 [Bendamustine] (300 nM) only.
Response: 96.8

Query: Answer with the recorded normalised viability of Oc1nc(-c2ccc(C(F)(F)F)cc2)nc2c1CSCC2 [XAV-939] (300 nM) only.
Response: 93.8

Query: Answer with the recorded normalised viability of CN[C@@H]1C[C@H]2O[C@@](C)([C@@H]1OC)n1c3ccccc3c3c4c(c5c6ccccc6n2c5c31)C(=O)N[C@H]4O [UCN-01] (300 nM) only.
Response: 38.4

Query: Answer with the recorded normalised viability of C#Cc1cccc(Nc2ncnc3cc(OCCOC)c(OCCOC)cc23)c1 [Erlotinib] (300 nM) only.
Response: 86.1

Query: Answer with the recorded normalised viability of CCC1(c2ccc(N)cc2)CCC(=O)NC1=O (stereo unspecified) [Aminoglutethimide] (300 nM) only.
Response: 89.6

Query: Answer with the recorded normalised viability of Cn1c(Nc2ccc(C(F)(F)F)cc2)nc2cc(Oc3ccnc(-c4ncc(C(F)(F)F)[nH]4)c3)ccc21 [RAF265] (30 nM) only.
Response: 88.3

---

Tested on: CAL-51
PROTOCOL NOTES: normalised response (% of control), CellTiter-Glo; higher = more viable cells (100 = DMSO, 0 = benzethonium chloride kill control)
PARTICULARS: incubation time: 72 h
normalised response for assorted compounds
State the answer as a number, implicitly in %.

Worked examples follow.
| COMPOUND | normalised response (%) |
| --- | --- |
| CC(=O)Nc1ccc(C(=O)Nc2ccccc2N)cc1 [Tacedinaline] (10 nM) | 86.8 |
| CCC1=C[C@@H]2CN(C1)Cc1c([nH]c3ccccc13)[C@@](C(=O)OC)(c1cc3c(cc1OC)N(C)[C@H]1[C@@](O)(C(=O)OC)[C@H](OC(C)=O)[C@]4(CC)C=CCN5CC[C@]31[C@@H]54)C2 [Vinorelbine] (100 nM) | 68.2 |
| CN(C)/N=N/c1[nH]cnc1C(N)=O [Dacarbazine] (100 nM) | 101 |
| CCCCCCCCCCCCCCCCCCOP(=O)([O-])OC1CC[N+](C)(C)CC1 [Perifosine] (25 nM) | 96.8 |
| CCC1(c2ccc(N)cc2)CCC(=O)NC1=O (stereo unspecified) [Aminoglutethimide] (100 nM) | 117 |

Query: Answer with the recorded normalised response of CN[C@@H]1C[C@H]2O[C@@](C)([C@@H]1OC)n1c3ccccc3c3c4c(c5c6ccccc6n2c5c31)C(=O)N[C@H]4O [UCN-01] (100 nM) only.
Response: 39

Query: Answer with the recorded normalised response of C[C@@H](Oc1cc(-c2cnn(C3CCNCC3)c2)cnc1N)c1c(Cl)ccc(F)c1Cl [Crizotinib] (10 nM) only.
Response: 57.6

Query: Answer with the recorded normalised response of CS(=O)(=O)c1ccc(C2=C(c3ccccc3)C(=O)OC2)cc1 [Rofecoxib] (100 nM) only.
Response: 105

Query: Answer with the recorded normalised response of CC(C)Cn1cnc2c(N)nc3ccccc3c21 [Imiquimod] (25 nM) only.
Response: 81.8

Query: Answer with the recorded normalised response of CO[C@H]1/C=C\C=C(/C)C(=O)NC2=CC(=O)C(NCCN(C)C)=C(C[C@@H](C)C[C@H](OC)[C@H](O)[C@@H](C)/C=C(\C)[C@@H]1OC(N)=O)C2=O [Alvespimycin] (10 nM) only.
Response: 101

Query: Answer with the recorded normalised response of CN(N=O)C(=O)N[C@@H](C=O)[C@@H](O)[C@H](O)[C@H](O)CO [Streptozocin] (100 nM) only.
Response: 106

---

System: HDQ-P1
PROTOCOL NOTES: normalised response (% of control), CellTiter-Glo; higher = more viable cells (100 = DMSO, 0 = benzethonium chloride kill control)
PARTICULARS: incubation time: 72 h
normalised response for assorted compounds
Record the result as number plus unit.

| COMPOUND | EXPERIMENTAL TARGET | normalised response |
| --- | --- | --- |
| N[C@@H](CSC(c1ccccc1)(c1ccccc1)c1ccccc1)C(=O)O [S-trityl-L-cysteine] (40 nM) | HDQ-P1 | 119% |

Now let's try a different one.
Query: GET normalised response where system = HDQ-P1 and item = CO[C@H]1/C=C\C=C(/C)C(=O)NC2=CC(=O)C(NCCN(C)C)=C(C[C@@H](C)C[C@H](OC)[C@H](O)[C@@H](C)/C=C(\C)[C@@H]1OC(N)=O)C2=O [Alvespimycin] (1 nM)
Response: 102%

---

System: MDA-MB-453
PROTOCOL NOTES: drug sensitivity score (DSS), CellTiter-Glo (DSS (AUC-based score)); higher = stronger drug effect (viability inhibition or cytotoxicity); extreme values may be limits of the assay
PARTICULARS: incubation time: 72 h
drug sensitivity score for assorted molecules
// print number alone

Worked examples follow.
| MOLECULE | drug sensitivity score |
| --- | --- |
| CCCCCCCCCCCCCCCCCCOP(=O)([O-])OC1CC[N+](C)(C)CC1 | 0 |
| Cc1ccc(-n2nc(C(C)(C)C)cc2NC(=O)Nc2ccc(OCCN3CCOCC3)c3ccccc23)cc1 | 1.59 |
| O=C(O)c1ccc(-c2c[nH]c3ncc(-c4ccccc4)cc23)cc1C1CCCC1 | 0 |
| NC(=O)Nc1cc(-c2cccc(F)c2)sc1C(=O)N[C@H]1CCCNC1 | 5.03 |

Now let's try a different one.
Query: Answer with the recorded drug sensitivity score of CCC1(c2ccc(N)cc2)CCC(=O)NC1=O (stereo not given) [Aminoglutethimide] only.
Response: 0
